measuredTarget: human ether-à-go-go-related gene (hERG) potassium channel (human)
protocol: primary screen, population patch clamp on CHO cells stably expressing hERG; higher = less effect of the substance
The whole screen tested about 310,000 compounds, of which about 14,000 (4.5%) showed an effect of 50% or more. The effect is printed as a negative number. Many of the other results were omitted from the sample, so strong results are more common in it than they were.
Catalogue of hERG current change (%, negative = inhibition) at 10uM values
recordedEndpoint: hERG current change (%, negative = inhibition) at 10uM (%)

COc1ccc(-c2[nH]ncc2CN2CCN(Cc3cccs3)CC2)cc1F :: -31.2
CSc1nc2ccccc2c(=O)n1Cc1ccc(F)cc1 :: 15.4
Cc1ccc2ncnc(NCCCCCC(=O)O)c2c1.Cl :: 17.4
O=C1OCCC1Sc1nc2ccccc2c(=O)n1-c1ccc(F)cc1 (stereo not shown) :: 8.7
COc1ccccc1S(=O)(=O)Cc1ccc(C(=O)NCc2ccco2)o1 :: -33.5
CCc1nnc(NC(=O)c2cc([N+](=O)[O-])ccc2N2CCOCC2)s1 :: -15
O=C(O)CCn1cc(/C=C2\SC(=S)NC2=O)c(-c2ccccc2)n1 :: 21.8

###

# hERG current change (%, negative = inhibition) at 10uM listing for each entry below
measuredTarget: human ether-à-go-go-related gene (hERG) potassium channel (human)
protocol: primary screen, population patch clamp on CHO cells stably expressing hERG; higher = less effect of the substance
The whole screen tested about 310,000 compounds, of which about 14,000 (4.5%) showed an effect of 50% or more. Effects have a minus sign here. The list comes from a sample in which strong results are over-represented; it also holds close analogues and randomly drawn compounds.
recordedEndpoint: hERG current change (%, negative = inhibition) at 10uM

Cc1ccc(OCC(=O)N(C)CC(=O)Nc2ccc(F)cc2)c([N+](=O)[O-])n1 :: -24.2%
O=C(CCn1c(=O)oc2ccccc21)Nc1cccc(Cl)c1 :: -2.8%
Cc1ccc(OCC(=O)N(C)CC(=O)Nc2ccc(Cl)c(C(F)(F)F)c2)c([N+](=O)[O-])n1 :: -54.8%
CN(CC(=O)Nc1ccc(Cl)c(C(F)(F)F)c1)C(=O)CNC(=O)C1CCCCC1 :: -31.5%
Cc1ccc(OCC(=O)N(C)CC(=O)Nc2ccccc2Cl)c([N+](=O)[O-])n1 :: -16.7%
CC(=O)c1cccc(NC(=O)Nc2ccc(C(=O)N3CCOCC3)cc2)c1 :: -0.351%
O=C(NC(=S)N1CCCC1)c1cccc([N+](=O)[O-])c1 :: 19.9%

###

measuredTarget: human ether-à-go-go-related gene (hERG) potassium channel (human);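 further: peak tail current of the secondary pulse compared with the same well before compound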
protocol: primary screen, population patch clamp on CHO cells stably expressing hERG; higher = less effect of the substance
Hit rate of the full screen: of about 310,000 compounds, about 14,000 (4.5%) showed an effect of 50% or more. The effect is printed as a negative number. What follows is part of a selection rich in strong results, with near analogues and random picks from the rest.
Quick reference: hERG current change (%, negative = inhibition) at 10uM of the listed items.
recordedEndpoint: hERG current change (%, negative = inhibition) at 10uM (%)

CCOC(=O)c1c(-c2ccccc2Cl)csc1NC(=O)CSc1nc(C)cc(=O)[nH]1 :: 4.37
COc1ccccc1N1CCN(C(=O)c2ccc(S(=O)(=O)N3CCCCCC3)cc2)CC1 :: -39.8
O=C(/C=C/C=C/c1ccc2c(c1)OCO2)N1CCCCC1 :: -8.23
COc1ccccc1N1CCN(C(=O)c2c(-c3c(Cl)cccc3Cl)noc2C)CC1 :: 2.17
COc1ccccc1N1CCN(C(=O)c2cccc(S(=O)(=O)N3CCCCCC3)c2)CC1 :: -77

###

measuredTarget: human ether-à-go-go-related gene (hERG) potassium channel (human);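 further: peak tail current of the secondary pulse compared with the same well before compound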
protocol: primary screen, population patch clamp on CHO cells stably expressing hERG; higher = less effect of the substance
The whole screen tested about 310,000 compounds, of which about 14,000 (4.5%) showed an effect of 50% or more. The effect is printed as a negative number. What follows is part of a selection rich in strong results, with near analogues and random picks from the rest.
recordedEndpoint: hERG current change (%, negative = inhibition) at 10uM (%)

CCCC(=O)Nc1ccc(C(=O)O)cc1NC(=O)CCC :: 8.09
O=C(C1CC1)N1CCN(c2ccc([N+](=O)[O-])cc2)CC1 :: -61.8
CCOC(=O)N1CCN(c2c(N3CCc4ccccc4C3)c(=O)c2=O)CC1 :: -34.8
C=CCOC(=O)c1cn(CC)c2nc(C)ccc2c1=O :: -5.77
[Cl-].c1ccc(Cc2cc[n+](Cc3ccccc3)cc2)cc1 :: 4.13
CCn1cc(C(=O)OCC(=O)N2C(C)CCCC2C)c(=O)c2ccc(C)nc21 (stereo not drawn) :: 11
CCN(CC)CCN(Cc1cc2cc(C)ccc2[nH]c1=O)C(=O)Nc1ccccc1OC :: -62.2
COc1cccc(N(CC(=O)NCc2ccccc2)C(=O)CCC(=O)Nc2nccs2)c1 :: 10.8
Nc1ccc(O)cc1C(=O)OCC(=O)c1ccc(C2CCCCC2)cc1 :: 8.51
CCn1cc(C(=O)OCC(=O)OC2CC(C)CCC2C(C)C)c(=O)c2ccc(C)nc21 (stereo not drawn) :: -51.8
CC(=O)N1CCN(c2ccc([N+](=O)[O-])cc2)CC1 :: -55.9
CCOC(=O)N1CCN(c2c(N3CC=C(c4ccccc4)CC3)c(=O)c2=O)CC1 :: -51.9
O=C(O)C(Cc1ccccc1)n1cnnn1 (stereo not drawn) :: 7.85
CCCOc1ccccc1-c1nc2n[nH]nc2c(=O)[nH]1 :: -56.3
CC1(C(=O)N2CCN(c3ccc([N+](=O)[O-])cc3)CC2)CC1(Cl)Cl (stereo not drawn) :: -72.7
CC(=O)Nc1sc2c(c1C(N)=O)CCCC2 :: 22.8
CCCc1nn(C)c2c(=O)[nH]c(-c3ccccc3OCC)nc12 :: 7.87
COc1ccc(CCNCC(O)COc2cccc(Br)c2)cc1 (stereo not drawn) :: -50
CC(=O)N1CCN(C(=S)c2ccc([N+](=O)[O-])cc2)CC1 :: -3.4
COc1ccc(CCNCC(O)COc2c(C)cccc2C)cc1OC.O=C(O)C(=O)O (stereo not drawn) :: 6.84
O=C(NCc1ccccc1Cl)c1cccc(NC(=O)c2ccccc2)c1 :: -8.78

###

Form field: hERG current change (%, negative = inhibition) at 10uM (one value per entry).
measuredTarget: human ether-à-go-go-related gene (hERG) potassium channel (human);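 further: peak tail current of the secondary pulse compared with the same well before compound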
protocol: primary screen, population patch clamp on CHO cells stably expressing hERG; higher = less effect of the substance
Description: Briefly, Chinese hamster ovary (CHO) cells stably expressing the hERG channel were dislodged from tissue culture flasks and dispensed into PPC plates. […] During the recording, background leak currents were estimated by a 100 ms step to -80 mV from an initial holding potential of -70 mV and subtracted from the subsequent current measurement. The campaign was conducted in two phases using slight differences in recording protocol. […]
Out of some 310,000 compounds screened, about 14,000 (4.5%) showed an effect of 50% or more. The effect is printed as a negative number. Many of the other results were omitted from the sample, so strong results are more common in it than they were.
recordedEndpoint: hERG current change (%, negative = inhibition) at 10uM (%)

COCCN(C(=O)CSc1nnc(Nc2ccc(C)cc2)s1)c1c(N)n(CC(C)C)c(=O)[nH]c1=O :: -7.66
O=C(COC(=O)/C=C/c1cccs1)NC(c1ccccc1)c1ccccc1 :: -2.53
Cc1ccc(OCCCCCCN2CCNCC2)c(Br)c1.O=C(O)C(=O)O :: -30.3
CSc1ccc(CN(C)Cc2nc3cc(C(F)(F)F)ccc3c(=O)[nH]2)cc1 :: 12.9
COc1cccc(CN(C)Cc2nc3cc(C(F)(F)F)ccc3c(=O)[nH]2)c1 :: -3.19
Cc1ccc(OCCOCCN2CCCC2)c(Br)c1.O=C(O)C(=O)O :: -24.7
Cc1ccc2c(CN3CCN(CCO)CC3)cc(=O)oc2c1C :: -15.5
Cc1ccc(OCCCCN2CCCCC2)c(Br)c1.O=C(O)C(=O)O :: -62.6
Cc1ccc(C(C)C)c(OCCCCN2CCNCC2)c1.O=C(O)C(=O)O :: -6.77

###

measuredTarget: human ether-à-go-go-related gene (hERG) potassium channel (human, UniProt Q12809);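 further: peak tail current of the secondary pulse compared with the same well before compound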
Sequence (Q12809 whole entry, looked up): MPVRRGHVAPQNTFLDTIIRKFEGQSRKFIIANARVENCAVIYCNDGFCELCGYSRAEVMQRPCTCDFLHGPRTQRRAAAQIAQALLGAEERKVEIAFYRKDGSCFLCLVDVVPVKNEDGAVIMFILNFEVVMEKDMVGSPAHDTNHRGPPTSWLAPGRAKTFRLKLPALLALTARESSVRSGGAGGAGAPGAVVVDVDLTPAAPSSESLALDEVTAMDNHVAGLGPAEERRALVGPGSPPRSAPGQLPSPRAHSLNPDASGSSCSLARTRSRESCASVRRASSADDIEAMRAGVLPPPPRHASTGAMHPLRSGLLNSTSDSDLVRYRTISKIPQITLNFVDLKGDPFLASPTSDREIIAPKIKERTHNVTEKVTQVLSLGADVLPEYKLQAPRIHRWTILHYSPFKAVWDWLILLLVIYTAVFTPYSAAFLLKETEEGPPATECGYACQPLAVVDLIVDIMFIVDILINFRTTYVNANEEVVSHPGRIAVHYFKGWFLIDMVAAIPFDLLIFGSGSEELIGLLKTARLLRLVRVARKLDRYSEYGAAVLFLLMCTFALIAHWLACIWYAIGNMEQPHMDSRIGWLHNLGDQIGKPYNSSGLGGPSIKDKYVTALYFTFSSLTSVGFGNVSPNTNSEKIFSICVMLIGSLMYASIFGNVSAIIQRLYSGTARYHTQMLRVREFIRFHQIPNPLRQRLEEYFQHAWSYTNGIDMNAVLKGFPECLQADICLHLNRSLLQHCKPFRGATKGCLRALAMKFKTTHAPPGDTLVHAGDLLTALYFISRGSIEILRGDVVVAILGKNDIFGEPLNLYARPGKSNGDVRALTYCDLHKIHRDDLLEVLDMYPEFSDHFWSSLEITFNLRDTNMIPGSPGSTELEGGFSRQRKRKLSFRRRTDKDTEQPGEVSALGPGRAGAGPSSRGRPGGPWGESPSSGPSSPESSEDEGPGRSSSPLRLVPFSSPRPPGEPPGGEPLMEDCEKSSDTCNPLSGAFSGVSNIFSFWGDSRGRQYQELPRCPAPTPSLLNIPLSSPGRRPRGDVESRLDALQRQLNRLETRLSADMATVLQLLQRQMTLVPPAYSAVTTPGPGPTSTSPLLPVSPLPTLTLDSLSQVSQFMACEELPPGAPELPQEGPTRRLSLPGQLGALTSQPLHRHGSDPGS
protocol: primary screen, population patch clamp on CHO cells stably expressing hERG; higher = less effect of the substance
Out of some 310,000 compounds screened, about 14,000 (4.5%) showed an effect of 50% or more. The effect is printed as a negative number. The sample as a whole holds a higher share of strong results than the screen did.
List of hERG current change (%, negative = inhibition) at 10uM values.
recordedEndpoint: hERG current change (%, negative = inhibition) at 10uM (%)

COCCNC(=O)c1c(N)n(Cc2ccco2)c2nc3ccccc3nc12 :: -6.12
Cc1cccc(-n2cnc3c(c2=O)c2nc4ccccc4nc2n3Cc2ccco2)c1 :: -63.7
CCCCC1CC(/C(C)=N/NC(N)=O)OC1=O (centres unmarked) :: -6.35
CCCC(NC(=O)COc1cc2c(c3oc(=O)cc(C)c13)CCC(C)(C)O2)C(=O)O (centres unmarked) :: 18.4
CCCCCCC1CC(/C(C)=N\NC(N)=O)OC1=O (centres unmarked) :: -53
Cc1cc(=O)oc2ccc(OCC(=O)O)cc12 :: 16.1
CCCCCCCCS(=O)C1CS(=O)(=O)CC1O (centres unmarked) :: 5.75
Cc1cc(OC(C)C)c2c(-c3ccccc3)cc(=O)oc2c1 :: 16.2
Cc1ccc(NC(=O)Nc2nnc(Cc3ccc(F)cc3)s2)cc1 :: 14
CCCCCCCC1CC(/C(C)=N/NC(N)=O)OC1=O (centres unmarked) :: -45.3
CCCC1CC(C)(/C(C)=N\NC(N)=S)OC1=O (centres unmarked) :: 12.4
CCCCCCS(=O)[C@H]1CS(=O)(=O)C[C@@H]1S(=O)CCCCCC (some centres unmarked) :: -66.7
CCCCCCCCS(=O)C1CCS(=O)(=O)C1 (centres unmarked) :: 4.04
COCCOC(=O)c1c(N)n(Cc2ccccc2)c2nc3ccccc3nc12 :: -36.5
COc1ccc(-c2nc(CS(=O)CC(=O)NC3CCCCCC3)c(C)o2)cc1 (centres unmarked) :: 10.6
Cc1cc(C)cc(-n2c3nc4ccccc4nc3c3c(=O)n(Cc4ccco4)cnc32)c1 :: 6.26
Cc1cc(=O)oc2ccc(OCC(=O)N(Cc3ccc(F)cc3)Cc3ccco3)cc12 :: -58.8
CCCCCCC1CC(C)(/C(C)=N/NC(N)=O)OC1=O (centres unmarked) :: -50.1
Br.CCCCCCCC1CC(CSC(=N)N)OC1=O (centres unmarked) :: -44.2
COCC(C)OC(=O)c1c(N)n(Cc2ccco2)c2nc3ccccc3nc12 (centres unmarked) :: -55.7
